Test system: dengue virus type 2
Assay Procedure: Antiviral activity against Dengue virus 2 infected in Vero cells after 3 days by fluorescence microscopy
Format: functional, organism-based
Assay Conditions: 72 h
pEC50: −log10 of the molar value.
# cutoff 5 applies to pEC50; >= gives condition met, < gives condition not met

{"columns": ["Compound Smiles", "Class Label"],
 "data": [
  ["CCCCc1cccc2c1c1c(N)ncnc1n2[C@@H]1O[C@H](CO)[C@@H](O)[C@H]1O", "condition not met"]
]}

For this molecule, is measured pEC50 5 or higher? Nc1ncnc2c1c1c(Cl)cccc1n2[C@@H]1O[C@H](CO)[C@@H](O)[C@H]1O
condition met

Same question, Nc1ncnc2c1c1cc(-c3ccsc3)ccc1n2[C@@H]1O[C@H](CO)[C@@H](O)[C@H]1O this time
condition not met

Entry Nc1ncnc2c1c1cc(-c3cc4ccccc4o3)ccc1n2[C@@H]1O[C@H](CO)[C@@H](O)[C@H]1O please
condition not met

Similarly, Nc1ncnc2c1c1ccccc1n2[C@@H]1O[C@H](CO)[C@@H](O)[C@H]1O ?
condition not met
